B1: TPR t1 (parent)
chain: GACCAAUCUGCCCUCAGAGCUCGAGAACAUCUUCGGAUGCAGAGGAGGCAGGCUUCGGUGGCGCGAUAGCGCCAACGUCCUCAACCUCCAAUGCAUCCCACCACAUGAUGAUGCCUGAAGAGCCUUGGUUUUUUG

variants of: B1; test: polymerase ribozyme fitness, log enrichment relative to wild type (log ratio); higher = more active; in vitro selection for triplet polymerase activity
MEASURED_ENDPOINT: polymerase ribozyme fitness (log ratio)
Give the figure by itself; no unit, no explanation.

SEQUENCE_INPUT	polymerase ribozyme fitness (log ratio)
GACCAAUCUGCCUUCAGAGCUCGAGAACAUCUUCGGAUGCAGAGGAGGCAGGCUUCGGUGGCGCGAUAGCGCCAACGUCCUCAACCUCCAAUGCAUCCCACCACAUGAUGACGCCUGAAGAGCCUUGGUUUUUUG	1.07

Problem: What polymerase ribozyme fitness (log ratio) value was documented for this variant, GACCAAGCUGCCCUCAGAGCUCGAGAACAUCUUCGGAUGCAGAGGAGGCAGGCUUCGGUGGCGCGAUAGGGCCAACGUCCUCAACCUCCAAUGCAUCCCACCACAUGAUGAUGCCUGAAGAGCCUUGGUUUUUUG ?
Solution: -2.23

Problem: What polymerase ribozyme fitness (log ratio) value was documented for this variant, GACCAAUCUGCCCUCAGAGCUCGAGAACAUCUUCGGAUGCAGAGGAGGCAGGCUUCGGUGGGGCGAUAGCGCCAACGUCCUCAACCUCCAAUGCAUCCCACCACAAGAUGAUGCCUGAAGAGCCUUGGUUUUUUG ?
Solution: -1.16

Problem: What polymerase ribozyme fitness (log ratio) value was documented for this variant, GACCAAUCUGCUCUCAGAGCUCGAGAGCAUCUUCGGAUGCAGAGGAGGCAGGCUUCGGUGGCGCGAUAGCGCCAACGUCCUCAACCUACAAUGCAUCCCACCACAUGAUGAUGCCUGAAGAGGCUAGGUUUUUUG ?
Solution: -1.75

Problem: What polymerase ribozyme fitness (log ratio) value was documented for this variant, GACCAAUCUGCCCUCAGAGCUCGAGAACAUCUUCGGAUGCAGAGGAGGCAGGCUUCGGUGGCGCGAUAGCGCCAACUUCCUCAACCUCCAAUGCAUCCCACCACAUGAUGAUGCGUGCAGAGCCUUGGUUUUUUG ?
Solution: -5.42
